MEASUREMENT TARGET: aurora A kinase (AURKA) (Homo sapiens, UniProt O14965)
Construct: purchased BPS Bioscience (assay run externally by the vendor)
EXPERIMENT DESCRIPTION: ADP-Glo kinase assay, Aurora A
Type: biochemical
CONDITION SET: Log[nM] 2.0; Set2
MEASURED METRIC: Aurora A % Activity Set2 (%)

{"COMPOUND": "c1ccc(Nc2ncnc3[nH]ccc23)cc1", "Aurora A % Activity Set2 (%)": 97}
{"COMPOUND": "Clc1ccccc1Nc1ncnc2[nH]ccc12", "Aurora A % Activity Set2 (%)": 98}
{"COMPOUND": "Brc1ccc(Nc2ncnc3[nH]ccc23)cc1", "Aurora A % Activity Set2 (%)": 97}
{"COMPOUND": "c1ccc(Oc2ccc(Nc3ncnc4[nH]ccc34)cc2)cc1", "Aurora A % Activity Set2 (%)": 100}
{"COMPOUND": "Clc1ccc(Nc2ncnc3[nH]ccc23)cc1", "Aurora A % Activity Set2 (%)": 107}
{"COMPOUND": "Nc1nc(Nc2cccc(Br)c2)c2cc[nH]c2n1", "Aurora A % Activity Set2 (%)": 109}
{"COMPOUND": "Brc1cccc(Nc2ncnc3[nH]ccc23)c1", "Aurora A % Activity Set2 (%)": 97}
{"COMPOUND": "Fc1cc(Nc2ncnc3[nH]ccc23)ccc1Cl", "Aurora A % Activity Set2 (%)": 104}
{"COMPOUND": "CN[C@@H]1C[C@H]2O[C@@](C)([C@@H]1OC)n1c3ccccc3c3c4c(c5c6ccccc6n2c5c31)C(=O)NC4 [Staurosporine, staurosporine, reference compound]", "Aurora A % Activity Set2 (%)": 9}
{"COMPOUND": "Cc1ccc(Nc2ncnc3[nH]ccc23)cc1", "Aurora A % Activity Set2 (%)": 107}
{"COMPOUND": "Clc1ccc(Nc2ncnc3[nH]ccc23)cc1Br", "Aurora A % Activity Set2 (%)": 106}
{"COMPOUND": "Clc1ccc(Nc2ncnc3[nH]ccc23)cc1Cl", "Aurora A % Activity Set2 (%)": 107}
{"COMPOUND": "c1ccc(Cc2ccc(Nc3ncnc4[nH]ccc34)cc2)cc1", "Aurora A % Activity Set2 (%)": 93}
{"COMPOUND": "Cc1ccccc1Nc1ncnc2[nH]ccc12", "Aurora A % Activity Set2 (%)": 107}
{"COMPOUND": "COc1ccc(Nc2ncnc3[nH]ccc23)cc1", "Aurora A % Activity Set2 (%)": 95}
{"COMPOUND": "FC(F)(F)c1cccc(Nc2ncnc3[nH]ccc23)c1", "Aurora A % Activity Set2 (%)": 108}
{"COMPOUND": "Clc1cccc(Nc2ncnc3[nH]ccc23)c1", "Aurora A % Activity Set2 (%)": 104}
{"COMPOUND": "Cc1cccc(Nc2ncnc3[nH]ccc23)c1", "Aurora A % Activity Set2 (%)": 101}

* * *

MEASUREMENT TARGET: aurora A kinase (AURKA) (Homo sapiens)
Construct: purchased BPS Bioscience (assay run externally by the vendor)
EXPERIMENT DESCRIPTION: ADP-Glo kinase assay, Aurora A
Assay type: biochemical
CONDITION SET: Log[nM] 4.5; Set1
MEASURED METRIC: Aurora A % Activity Set1 (%)

Below are worked cases with known answers.
{"CHEMICAL STRING": "Brc1cccc(Nc2ncnc3[nH]ccc23)c1", "Aurora A % Activity Set1 / %": 6}
{"CHEMICAL STRING": "Clc1ccc(Nc2ncnc3[nH]ccc23)cc1Cl", "Aurora A % Activity Set1 / %": 11}
{"CHEMICAL STRING": "FC(F)(F)c1cccc(Nc2ncnc3[nH]ccc23)c1", "Aurora A % Activity Set1 / %": 13}

A: COc1ccc(Nc2ncnc3[nH]ccc23)cc1
B: Fc1cc(Nc2ncnc3[nH]ccc23)ccc1Cl
C: Clc1ccc(Nc2ncnc3[nH]ccc23)cc1Br
Please order the records by their reported Aurora A % Activity Set1, lowest number first. Returns: the labels arranged in the requested order.
B, A, C

* * *

MEASUREMENT TARGET: aurora A kinase (AURKA) (Homo sapiens, UniProt O14965)
Construct: purchased BPS Bioscience (assay run externally by the vendor)
Sequence (O14965 1-403): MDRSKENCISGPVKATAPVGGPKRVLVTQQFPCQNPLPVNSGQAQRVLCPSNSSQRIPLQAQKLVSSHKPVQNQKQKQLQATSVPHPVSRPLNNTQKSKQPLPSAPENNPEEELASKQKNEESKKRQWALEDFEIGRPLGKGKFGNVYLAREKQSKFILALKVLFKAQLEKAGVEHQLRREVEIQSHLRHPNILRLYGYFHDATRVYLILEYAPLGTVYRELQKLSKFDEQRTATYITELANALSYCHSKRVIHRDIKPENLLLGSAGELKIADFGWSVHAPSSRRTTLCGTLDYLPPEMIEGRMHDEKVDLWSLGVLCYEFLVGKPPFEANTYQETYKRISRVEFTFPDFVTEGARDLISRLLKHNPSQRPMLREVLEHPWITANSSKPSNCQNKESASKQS
EXPERIMENT DESCRIPTION: ADP-Glo kinase assay, Aurora A
Assay type: biochemical
CONDITION SET: Log[nM] 1.0; Set1
MEASURED METRIC: Aurora A % Activity Set1 (%)

{"CHEMICAL STRING": "Cc1ccc(Nc2ncnc3[nH]ccc23)cc1", "UNIT OF MEASUREMENT": "%", "Aurora A % Activity Set1": 114}
{"CHEMICAL STRING": "Clc1ccc(Nc2ncnc3[nH]ccc23)cc1Br", "UNIT OF MEASUREMENT": "%", "Aurora A % Activity Set1": 100}
{"CHEMICAL STRING": "Brc1cccc(Nc2ncnc3[nH]ccc23)c1", "UNIT OF MEASUREMENT": "%", "Aurora A % Activity Set1": 109}
{"CHEMICAL STRING": "c1ccc(Oc2ccc(Nc3ncnc4[nH]ccc34)cc2)cc1", "UNIT OF MEASUREMENT": "%", "Aurora A % Activity Set1": 97}
{"CHEMICAL STRING": "Clc1ccc(Nc2ncnc3[nH]ccc23)cc1Cl", "UNIT OF MEASUREMENT": "%", "Aurora A % Activity Set1": 104}
{"CHEMICAL STRING": "FC(F)(F)c1cccc(Nc2ncnc3[nH]ccc23)c1", "UNIT OF MEASUREMENT": "%", "Aurora A % Activity Set1": 103}
{"CHEMICAL STRING": "Fc1cc(Nc2ncnc3[nH]ccc23)ccc1Cl", "UNIT OF MEASUREMENT": "%", "Aurora A % Activity Set1": 99}
{"CHEMICAL STRING": "Clc1ccccc1Nc1ncnc2[nH]ccc12", "UNIT OF MEASUREMENT": "%", "Aurora A % Activity Set1": 102}
{"CHEMICAL STRING": "Clc1ccc(Nc2ncnc3[nH]ccc23)cc1", "UNIT OF MEASUREMENT": "%", "Aurora A % Activity Set1": 99}

* * *

MEASUREMENT TARGET: EGFR (Homo sapiens, UniProt P00533)
Sequence (P00533 25-1210): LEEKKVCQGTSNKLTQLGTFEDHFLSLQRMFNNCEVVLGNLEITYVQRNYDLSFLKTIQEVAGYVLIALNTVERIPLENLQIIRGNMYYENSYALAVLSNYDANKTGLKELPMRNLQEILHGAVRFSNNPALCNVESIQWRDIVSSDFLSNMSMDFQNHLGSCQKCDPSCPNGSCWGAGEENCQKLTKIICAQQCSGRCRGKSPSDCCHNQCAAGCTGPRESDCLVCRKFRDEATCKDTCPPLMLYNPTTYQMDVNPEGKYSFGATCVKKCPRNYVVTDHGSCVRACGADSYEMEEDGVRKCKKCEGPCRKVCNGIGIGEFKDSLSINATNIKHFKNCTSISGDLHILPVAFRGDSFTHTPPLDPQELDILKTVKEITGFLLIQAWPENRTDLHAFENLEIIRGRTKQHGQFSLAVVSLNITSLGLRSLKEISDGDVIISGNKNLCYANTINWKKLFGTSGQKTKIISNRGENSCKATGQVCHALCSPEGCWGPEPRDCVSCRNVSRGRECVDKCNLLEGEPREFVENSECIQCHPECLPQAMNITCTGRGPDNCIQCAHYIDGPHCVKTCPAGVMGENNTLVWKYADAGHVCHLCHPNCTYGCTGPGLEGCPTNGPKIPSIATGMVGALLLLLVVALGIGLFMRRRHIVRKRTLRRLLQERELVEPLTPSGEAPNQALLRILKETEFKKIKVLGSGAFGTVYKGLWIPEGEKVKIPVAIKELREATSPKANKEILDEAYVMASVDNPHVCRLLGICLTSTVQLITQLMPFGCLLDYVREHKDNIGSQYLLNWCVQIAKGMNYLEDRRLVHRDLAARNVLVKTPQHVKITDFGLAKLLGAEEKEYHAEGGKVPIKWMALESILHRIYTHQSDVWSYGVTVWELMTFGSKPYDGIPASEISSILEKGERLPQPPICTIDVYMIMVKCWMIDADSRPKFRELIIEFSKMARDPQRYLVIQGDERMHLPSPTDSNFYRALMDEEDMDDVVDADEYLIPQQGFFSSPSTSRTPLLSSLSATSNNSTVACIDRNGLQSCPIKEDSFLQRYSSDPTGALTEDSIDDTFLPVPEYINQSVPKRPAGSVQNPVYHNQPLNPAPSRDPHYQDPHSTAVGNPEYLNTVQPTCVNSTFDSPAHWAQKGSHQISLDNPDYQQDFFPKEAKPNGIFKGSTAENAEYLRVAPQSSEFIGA
EXPERIMENT DESCRIPTION: ADP-Glo kinase assay, EGFR
Format: biochemical
Parameters: purchased BPS Bioscience (assay run externally by the vendor)
CONDITION SET: Log[nM] 0; Set3
MEASURED METRIC: EGFR % Activity Set3 (%)

Below are worked cases with known answers.
{"CHEMICAL STRING": "FC(F)(F)c1cccc(Nc2ncnc3[nH]ccc23)c1", "MEASURED METRIC": "EGFR % Activity Set3", "MEASURED": 91}
{"CHEMICAL STRING": "Cc1cccc(Nc2ncnc3[nH]ccc23)c1", "MEASURED METRIC": "EGFR % Activity Set3", "MEASURED": 76}
{"CHEMICAL STRING": "Clc1cccc(Nc2ncnc3[nH]ccc23)c1", "MEASURED METRIC": "EGFR % Activity Set3", "MEASURED": 63}
{"CHEMICAL STRING": "Nc1nc(Nc2cccc(Br)c2)c2cc[nH]c2n1", "MEASURED METRIC": "EGFR % Activity Set3", "MEASURED": 99}

A: COc1ccc(Nc2ncnc3[nH]ccc23)cc1
B: Clc1ccc(Nc2ncnc3[nH]ccc23)cc1Cl
Exercise: compare A and B ; which one has the greater EGFR % Activity Set3? Output the label that corresponds to your choice.
A

* * *

MEASUREMENT TARGET: EGFR (Homo sapiens)
EXPERIMENT DESCRIPTION: ADP-Glo kinase assay, EGFR
Format: biochemical
Set-up: purchased BPS Bioscience (assay run externally by the vendor)
CONDITION SET: Log[nM] 2.5; Set1
MEASURED METRIC: EGFR % Activity Set1 (%)

Below are worked cases with known answers.
{"CHEMICAL STRING": "Clc1ccc(Nc2ncnc3[nH]ccc23)cc1Br", "UNIT OF MEASUREMENT": "%", "EGFR % Activity Set1": 3}
{"CHEMICAL STRING": "Clc1ccc(Nc2ncnc3[nH]ccc23)cc1", "UNIT OF MEASUREMENT": "%", "EGFR % Activity Set1": 19}
{"CHEMICAL STRING": "c1ccc(Oc2ccc(Nc3ncnc4[nH]ccc34)cc2)cc1", "UNIT OF MEASUREMENT": "%", "EGFR % Activity Set1": 24}
{"CHEMICAL STRING": "Fc1cc(Nc2ncnc3[nH]ccc23)ccc1Cl", "UNIT OF MEASUREMENT": "%", "EGFR % Activity Set1": 2}
{"CHEMICAL STRING": "Brc1cccc(Nc2ncnc3[nH]ccc23)c1", "UNIT OF MEASUREMENT": "%", "EGFR % Activity Set1": 3}

1: Cc1ccccc1Nc1ncnc2[nH]ccc12
2: c1ccc(Nc2ncnc3[nH]ccc23)cc1
Identify the entry with the smaller EGFR % Activity Set1: 1 or 2 . Output the label that corresponds to your choice.
2

I: Clc1ccccc1Nc1ncnc2[nH]ccc12
II: Clc1ccc(Nc2ncnc3[nH]ccc23)cc1Cl
Identify the entry with the smaller EGFR % Activity Set1: I or II . Output the label that corresponds to your choice.
II

I: Cc1cccc(Nc2ncnc3[nH]ccc23)c1
II: Clc1cccc(Nc2ncnc3[nH]ccc23)c1
Identify the entry with the smaller EGFR % Activity Set1: I or II . Output the label that corresponds to your choice.
II
(II: 6%, I: 10%)

1: Brc1ccc(Nc2ncnc3[nH]ccc23)cc1
2: FC(F)(F)c1cccc(Nc2ncnc3[nH]ccc23)c1
3: COc1ccc(Nc2ncnc3[nH]ccc23)cc1
4: Nc1nc(Nc2cccc(Br)c2)c2cc[nH]c2n1
List from greatest to least EGFR % Activity Set1. Returns: the labels arranged in the requested order.
3, 4, 1, 2

I: Cc1ccc(Nc2ncnc3[nH]ccc23)cc1
II: c1ccc(Cc2ccc(Nc3ncnc4[nH]ccc34)cc2)cc1
Exercise: compare I and II ; which one has the greater EGFR % Activity Set1? Output the label that corresponds to your choice.
I
